# target-entity: HNF4alpha8 (COS-7 nuclear extract) (Homo sapiens, UniProt P41235-5 1-452)
# Sequence: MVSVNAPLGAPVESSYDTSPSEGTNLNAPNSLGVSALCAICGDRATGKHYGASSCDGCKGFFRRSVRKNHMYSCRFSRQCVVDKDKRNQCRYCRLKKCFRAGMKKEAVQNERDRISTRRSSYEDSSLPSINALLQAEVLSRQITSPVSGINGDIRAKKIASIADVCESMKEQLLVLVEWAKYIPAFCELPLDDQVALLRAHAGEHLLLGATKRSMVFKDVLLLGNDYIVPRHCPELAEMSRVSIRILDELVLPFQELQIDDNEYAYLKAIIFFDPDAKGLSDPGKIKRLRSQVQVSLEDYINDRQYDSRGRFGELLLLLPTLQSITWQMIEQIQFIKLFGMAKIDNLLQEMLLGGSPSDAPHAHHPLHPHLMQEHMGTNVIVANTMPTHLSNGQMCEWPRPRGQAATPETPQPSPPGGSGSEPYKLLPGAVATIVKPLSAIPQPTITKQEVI
# assay-text: protein-binding microarray; COS-7 nuclear extract on double-stranded Agilent 4x180k PBM; binding buffer, salt, pH and temperature not given in the material; high values mean tight binding
# cond: chain copies: 2; label: 3' end of strand 1 on the slide; dsDNA, one strand shown
Whole data set: some 18,000 sequences, median “log2 normalized intensity” near 0.36, cut for the highest 2% near 7.3. This excerpt belongs to a sample that is enriched for the highest values.
Note to self: values exactly at 5 log2 normalized intensity are Met. So binding signal at or above 5 log2 normalized intensity is Met, below is Not met.

Look over these answered cases.
> print(dat)
                                    seq.text                             target.entity  qualitative.label
 1  AAATACCCTCTTTAGGGTAGCCTGGGTTAAGCCTAGGGAGATTAGAGTATCGGTCGA  HNF4alpha8 (COS-7 nuclear extract) (Homo sapiens, UniProt P41235-5 1-452)            Not met
 2  GGGCCATGACCTTTACCCCCATTTGGTAATGCCTAGGGAGATTAGAGTATCGGTCGA  HNF4alpha8 (COS-7 nuclear extract) (Homo sapiens, UniProt P41235-5 1-452)                Met
 3  CCCTGCAATTTGATTTGTATGATCTTGGGTGCCTAGGGAGATTAGAGTATCGGTCGA  HNF4alpha8 (COS-7 nuclear extract) (Homo sapiens, UniProt P41235-5 1-452)            Not met
 4  TATGCTCTCTCTCCACCTGGAGGGACTTTGGCCTAGGGAGATTAGAGTATCGGTCGA  HNF4alpha8 (COS-7 nuclear extract) (Homo sapiens, UniProt P41235-5 1-452)            Not met
 5  CTTGGGGTCAAAGTACATCCCCTAAAACATGCCTAGGGAGATTAGAGTATCGGTCGA  HNF4alpha8 (COS-7 nuclear extract) (Homo sapiens, UniProt P41235-5 1-452)                Met
 6  CCAGAGCCTCCAAAGTCCGCTTGCCTGAGGGCCTAGGGAGATTAGAGTATCGGTCGA  HNF4alpha8 (COS-7 nuclear extract) (Homo sapiens, UniProt P41235-5 1-452)            Not met
 7  AGTTGGAAAATATTTCTCTGAACTTTGACCGCCTAGGGAGATTAGAGTATCGGTCGA  HNF4alpha8 (COS-7 nuclear extract) (Homo sapiens, UniProt P41235-5 1-452)                Met
 8  CAATGTGACTGGAGCAGAGCGATCAAAGGTGCCTAGGGAGATTAGAGTATCGGTCGA  HNF4alpha8 (COS-7 nuclear extract) (Homo sapiens, UniProt P41235-5 1-452)            Not met
 9  AAACATCAAGGAAGAGAACTCCCTATCCCCGCCTAGGGAGATTAGAGTATCGGTCGA  HNF4alpha8 (COS-7 nuclear extract) (Homo sapiens, UniProt P41235-5 1-452)            Not met
10  TCTACACTGCTTACCCTGCAGTGTGACCTTGCCTAGGGAGATTAGAGTATCGGTCGA  HNF4alpha8 (COS-7 nuclear extract) (Homo sapiens, UniProt P41235-5 1-452)            Not met

**Query** Check the entry `CAAGGAAAGATAAATAGTGACAAATTGTATGCCTAGGGAGATTAGAGTATCGGTCGA` : does binding signal equal or exceed 5 log2 normalized intensity?
**Result** Not met

**Query** Check the entry `CACTTCTGAAAAAAATATTGAACAAAGATTGCCTAGGGAGATTAGAGTATCGGTCGA` : does binding signal equal or exceed 5 log2 normalized intensity?
**Result** Not met

**Query** Check the entry `TTATCTTGGTGCCTGCAGAGCCTCCCCATTGCCTAGGGAGATTAGAGTATCGGTCGA` : does binding signal equal or exceed 5 log2 normalized intensity?
**Result** Not met
